Biological target: Endothelin-1 receptor (Sus scrofa)
Sequence (Q29010 whole entry): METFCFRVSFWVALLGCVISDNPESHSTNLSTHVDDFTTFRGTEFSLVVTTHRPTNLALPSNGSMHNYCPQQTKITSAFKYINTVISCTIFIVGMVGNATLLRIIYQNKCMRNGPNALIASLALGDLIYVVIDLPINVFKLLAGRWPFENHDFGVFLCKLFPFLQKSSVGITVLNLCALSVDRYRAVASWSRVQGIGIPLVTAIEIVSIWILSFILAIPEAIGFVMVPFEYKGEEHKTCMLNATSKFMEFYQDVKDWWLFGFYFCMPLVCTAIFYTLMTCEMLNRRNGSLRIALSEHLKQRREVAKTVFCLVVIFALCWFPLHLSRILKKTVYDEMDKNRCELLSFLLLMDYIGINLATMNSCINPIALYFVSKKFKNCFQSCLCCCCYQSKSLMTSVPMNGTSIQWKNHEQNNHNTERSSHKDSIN
Assay: Binding affinity determined against ETA receptor in porcine aortic smooth muscle membrane
Endpoint Name: IC50 max (nM)

{"Molecule": "CC(C)C[C@H](NC(=O)N1CCC(C)CC1)C(=O)NC(Cc1c[nH]c2ccccc12)C(=O)NCCC(=O)O (single isomer, unassigned)", "Measurement Target": "Endothelin-1 receptor (Sus scrofa)", "IC50 max [nM]": 580}
{"Molecule": "CC(C)C[C@H](NC(=O)Cc1cccs1)C(=O)NC(Cc1c[nH]c2ccccc12)C(=O)NCCC(=O)O (single isomer, unassigned)", "Measurement Target": "Endothelin-1 receptor (Sus scrofa)", "IC50 max [nM]": 420}
{"Molecule": "CC(C)C[C@H](NC(=O)OC(C)(C)C)C(=O)NC(Cc1c[nH]c2ccccc12)C(=O)NCCC(=O)O (single isomer, unassigned)", "Measurement Target": "Endothelin-1 receptor (Sus scrofa)", "IC50 max [nM]": 270}
{"Molecule": "CC(C)C[C@H](NC(=O)N1CCCCC1)C(=O)NC(Cc1c[nH]c2ccccc12)C(=O)NCCC(=O)O (single isomer, unassigned)", "Measurement Target": "Endothelin-1 receptor (Sus scrofa)", "IC50 max [nM]": 81}

I = CC(C)C[C@H](NC(=O)N1CCc2ccccc2C1)C(=O)NC(Cc1c[nH]c2ccccc12)C(=O)NCCC(=O)O (single isomer, unassigned)
II = CC(C)C[C@H](NC(=O)N1C(C)(C)CCCC1(C)C)C(=O)NC(Cc1c[nH]c2ccccc12)C(=O)NCCC(=O)O (single isomer, unassigned)
Problem: Please let me know which one, I or II , has a lower measured IC50 max value. Answer = label.
Result: II
(II: 190 nM, I: 530 nM)
